biological target: Galanin receptor type 2 (Homo sapiens); experiment: blockers of human galanin receptor 2 – cell-based, primary screen (AID 828); settings: GALR2-expressing cells, antagonist mode; at 4 µM;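 note: cells stimulated with galanin 1-16 at roughly its EC80; 0% = agonist challenge control and 100% = basal control without agonist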
Hit rate of the full screen: of about 140,000 compounds, about 550 (0.39%) were called active. Cut-off read from the data, not from the text of the source: active = inhibition above about 27%; inactive = the rest. The sample holds actives, similar compounds and a random draw of the others, so the mix is not that of the screen.
// classify into active, inactive

Please review the following examples before continuing.
NS(=O)(=O)c1ccc(CCNC(=S)Nc2ccc(S(N)(=O)=O)cc2)cc1
inactive
COc1ccc(/C=C2/C(=O)OCc3cc(OC)c(OC)cc32)c(OC)c1
inactive
COC(=O)c1cc(NC(=O)Cc2ccccc2[N+](=O)[O-])ccc1Cl
inactive
CC[C@H]1CN2CCc3cc(OC)c(OC)cc3[C@@H]2C[C@@H]1C[C@H]1NCCc2cc(OC)c(OC)cc21
active

Incoming: Kindly provide the recorded test outcome for the following compound: CC(=O)Nc1ccc(NC(=O)C(C)OC(=O)c2ccccc2C(=O)c2ccc(Cl)c([N+](=O)[O-])c2)cc1 (stereo not given)
Outgoing: inactive

###

molecular target: Galanin receptor type 2 (Homo sapiens) (UniProt O43603); assay: blockers of human galanin receptor 2 – cell-based, primary screen (AID 828); conditions: GALR2-expressing cells, antagonist mode; at 4 µM; hits give high values
Sequence (O43603 whole entry, looked up): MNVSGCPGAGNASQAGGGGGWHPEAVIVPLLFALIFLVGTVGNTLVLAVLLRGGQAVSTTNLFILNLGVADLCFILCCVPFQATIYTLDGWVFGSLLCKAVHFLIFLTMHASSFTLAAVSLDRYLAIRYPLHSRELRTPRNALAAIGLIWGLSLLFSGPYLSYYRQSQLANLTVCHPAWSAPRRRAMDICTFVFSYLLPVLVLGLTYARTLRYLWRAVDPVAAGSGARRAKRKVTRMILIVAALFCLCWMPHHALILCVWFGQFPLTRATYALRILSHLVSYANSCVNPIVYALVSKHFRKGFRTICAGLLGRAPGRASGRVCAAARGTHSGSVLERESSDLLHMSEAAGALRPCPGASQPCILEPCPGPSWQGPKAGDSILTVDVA
Among all 140,000 compounds or so, about 550 (0.39%) were called active. This is one part of a sample in which actives are shown more often than they occur.
Provide the reported inhibition of each item.
Numbers only, in %.

Example entries begin here.
Cc1cc(C)cc(OCC(=O)Nc2nc3ccc([N+](=O)[O-])cc3s2)c1
7.65
Cc1ccc(-c2nc3ccccc3[nH]2)cc1N
4.32
COc1ccc([N+](=O)[O-])cc1NC(=O)c1ccc(N(Cc2ccccc2C)S(C)(=O)=O)cc1
10.8
c1ccc2[nH]c(-c3nc4ccccc4[nH]3)nc2c1
35.5
O=C(CC1NCCNC1=O)Nc1cc(Cl)cc(Cl)c1 (stereo not drawn)
-4.41

State the recorded inhibition for every item in the following list.
1. COc1ccccc1OCCC(=O)OCC(=O)NCc1ccccc1
2. O=C(Cc1cccs1)Nc1cccc(-c2nc3ccccc3[nH]2)c1
3. O=C(NNC1CC(=O)N(c2cccc(Cl)c2)C1=O)c1cccnc1 (stereo not drawn)
4. COc1ccc(/C=N/Nc2ncnc3sc4c(c23)CCCC4)cc1O

Outgoing:
1: -7.36; 2: 12.3; 3: -6.86; 4: 0.22

Please state, for each entry, its recorded inhibition.
1. COC(=O)Cc1cc(=O)oc2c(C)c(O)ccc12
2. CCCn1nc(C(=O)Nc2ccc3nc(C)sc3c2)c2ccccc2c1=O

Outgoing:
1: 39.2; 2: -3.02

Dear reader, for each entry below, please note its inhibition.
1. O=C(CSC(=S)N1CCOCC1)c1ccccc1
2. COc1ccc(/C=C(\C#N)C(=O)NCCCn2ccnc2)cc1
3. CCCc1cc(=O)oc2c(C)c(O)c(CN3CCCCC3)cc12
4. COC(=O)C(NC(=O)c1ccc(OC)cc1)(Nc1ncc(S(=O)(=O)c2ccc([N+](=O)[O-])cc2)s1)C(F)(F)F (stereo not drawn)
5. COc1ccc(NC(=O)/C(Cl)=C(/Cl)S(=O)Cc2ccc(C)cc2)cn1 (stereo not drawn)
6. Cc1cccc(C(=O)NCC(=O)OCC(=O)N2CC3(C)CC2CC(C)(C)C3)c1 (stereo not drawn)
7. COc1ccc(N(C(=O)c2ccc(C)cc2)S(=O)(=O)c2cccs2)cc1

Outgoing:
1: 5.48; 2: 8.04; 3: -0.41; 4: -4.68; 5: 105; 6: 1.61; 7: 5.74

###

biological target: Galanin receptor type 2 (Homo sapiens); assay: blockers of human galanin receptor 2 – cell-based, primary screen (AID 828); settings: GALR2-expressing cells, antagonist mode; at 4 µM
In all, about 140,000 compounds went through this assay and about 550 (0.39%) were called active. Rule as the data show it: active = inhibition above about 27%; inactive = the rest. Many of the other results were omitted from the sample, so actives are more common in it than they were.
The reply should be one of these categories: true (1) for active, false (0) for inactive

CC(C)COP(=O)(c1ccc(N(C)C)cc1)C(Nc1ccccc1)c1cccnc1 (centres undefined)
false (0)
COc1ccc(Cl)cc1NC(=O)[C@@H]1CCCN1C(=O)c1cccs1
false (0)
CC1CN(C(=S)SCC(=O)c2ccccc2)CC(C)O1 (centres undefined)
false (0)
COC(=O)c1ccccc1SC1CC(=O)N(c2cccc(C)c2)C1=O (centres undefined)
false (0)
C=C1c2cc(CC)ccc2NC(=O)N1c1ccc(C)cc1
false (0)

Here's the next entry for you.
Incoming: Which outcome was entered for the compound CCOC(=O)C1(S(=O)(=O)c2ccccc2)CCN(Cc2ccccc2)CC1 in this test?
Outgoing: false (0)

###

target: Galanin receptor type 2 (Homo sapiens); test: blockers of human galanin receptor 2 – cell-based, primary screen (AID 828); settings: GALR2-expressing cells, antagonist mode; at 4 µM
Screen size: about 140,000 compounds; about 550 (0.39%) were called active. Rule as the data show it: active = inhibition above about 27%; inactive = the rest. The full list was thinned out, with actives kept by preference.
Classes to choose from: active, inactive

// known answers, use as guide
CCOc1ccc(NC(=O)Nc2cc(C)ccc2OC)cc1
inactive
Cc1c(C(=O)Nc2cccc(-c3nnc4n3CCCCC4)c2)oc2ccccc12
inactive
O=C1C2C3C=CC(C4CC34)C2C(=O)N1c1nccs1 (stereo unspecified)
inactive
COC(=O)N/N=C/c1ccc(-c2ccc(Cl)c(Cl)c2)o1
inactive
CC(C)(C)NC(=O)COC(=O)c1cc(Br)ccc1Cl
inactive

Now turn to the next compound.
Incoming: Please indicate how the test categorized COc1ccc(C)cc1NC(=O)c1[nH]c(C)c(C(C)=O)c1C .
Outgoing: active

###

biological target: Galanin receptor type 2 (Homo sapiens) (UniProt O43603); test: blockers of human galanin receptor 2 – cell-based, primary screen (AID 828); conditions: GALR2-expressing cells, antagonist mode; at 4 µM; hits give high values;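 note: cells stimulated with galanin 1-16 at roughly its EC80; 0% = agonist challenge control and 100% = basal control without agonist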
In all, about 140,000 compounds went through this assay and about 550 (0.39%) were called active. The entries come from a sample that favours actives as a whole.
metric: inhibition (%)
One number for each entry, in %.

Fc1ccc(N2N=C(c3cccs3)CC2c2ccco2)c(F)c1 (stereo not given)
-13.2
Cc1cc(C(=O)COC(=O)CNC(=O)c2ccc(F)cc2)c(C)n1Cc1ccco1
3.46
Cc1ccc(-n2nc(C)c(/C=N/NC(=O)c3cccs3)c2Cl)cc1
-3.43
Cc1ccc(/C=N\n2c(-c3ccccc3)n[nH]c2=S)s1
5.78
COc1ccc(OC)c(/C=C/C(=O)OCC(=O)Nc2ccc3c(c2)OCCO3)c1
4.33
O=C(Oc1ccc([N+](=O)[O-])cc1)c1ccc(Cl)c(S(=O)(=O)N2CCCCC2)c1
-9.96
COc1ccc(NC(=O)CN(Cc2ccccc2)S(C)(=O)=O)cc1OC
-9.1
COc1ccc(C2COC(=O)C2=N)c(NC(=O)c2ccccc2)c1 (stereo not given)
-8.91
COc1ccc(C2CC(c3cccs3)=NN2C(=O)COC(=O)c2cc3ccccc3cc2O)cc1OC (stereo not given)
12.7

Incoming: Entry S=c1[nH]nc(-c2cccnc2)n1/N=C/C(Cl)=C\c1ccccc1 has what inhibition?
Outgoing: 18

###

molecular target: Galanin receptor type 2 (Homo sapiens) (UniProt O43603); experiment: blockers of human galanin receptor 2 – cell-based, primary screen (AID 828); conditions: GALR2-expressing cells, antagonist mode; at 4 µM; hits give high values;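 note: cells stimulated with galanin 1-16 at roughly its EC80; 0% = agonist challenge control and 100% = basal control without agonist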
Hit rate of the full screen: of about 140,000 compounds, about 550 (0.39%) were called active. The sample holds actives, similar compounds and a random draw of the others, so the mix is not that of the screen.
metric: inhibition (%)
Give bare numbers, in %.

Reference set, count: 8
O=C(NCCc1ccccc1)C1CCN(S(=O)(=O)c2ccc(Br)s2)CC1
-2.64
COCC(C)NC(=O)c1ccc(-n2nc(C(F)(F)F)cc2-c2cccs2)cc1 (stereo not given)
-1.6
N#Cc1ccccc1Sc1ccccc1C(=O)OCC(=O)NC1CCCCC1
-1.21
Cc1cc(C)c(C#N)c(SCC(=O)NN2CC(=O)N(c3ccccc3F)CC2=O)n1
12.2
C/C(=N\Nc1ccc([N+](=O)[O-])cc1)c1ccc(-n2nncc2C(C)(C)C)cc1
-1.64
Cc1cccc(-c2nc3ccccc3c(=O)n2NC(=O)Cc2ccc(Cl)cc2)c1
-8.75
CCCSc1nc2[nH]ncc2c(=O)[nH]1
-7.72
COC(C(=O)Nc1ccc(S(=O)(=O)Nc2ccc(C)c(C)c2)cc1)c1ccccc1 (stereo not given)
0.51

List reported inhibition for each of these compounds:
1. CC(C)(C)NCCCOc1ccc(Cl)cc1C(C)(C)C
2. CCc1ccc(C2C(C#N)=C(N)N(N(C)C)C3=C2C(=O)CCC3)s1 (stereo not given)

Outgoing:
1. -7.15
2. -4.14

###

For each record, write down the corresponding inhibition.
molecular target: Galanin receptor type 2 (Homo sapiens); assay: blockers of human galanin receptor 2 – cell-based, primary screen (AID 828); settings: GALR2-expressing cells, antagonist mode; at 4 µM; hits give high values;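 note: cells stimulated with galanin 1-16 at roughly its EC80; 0% = agonist challenge control and 100% = basal control without agonist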
The campaign covered roughly 140,000 compounds. About 550 (0.39%) were called active. Shown is part of a subset that was picked to be rich in actives.
Give bare numbers, in %.

A selection of reference data follows.
Cc1cc(N2CCN(Cc3ccc4c(c3)OCO4)CC2)n2ncnc2n1
-5.12
COc1cc(OC)cc(-c2nc3ccccc3c(=O)n2NC(=O)c2cccnc2Cl)c1
1.33
CCOC(=O)/C(=N\Nc1cc(Cl)ccc1Cl)N1CCN(C)CC1
-4.67
CC(=O)Nc1ccc(S(=O)(=O)NC(C)C(=O)OCC(=O)NC2CCCC2)cc1 (centres undefined)
11.3
CC1(C)CC(=O)C/C(=N\NC(=O)c2cccs2)C1
9.6

Parameters: items (list). Returns: inhibition for each item.
1. CCN(C(=O)COC(=O)c1cc(NS(=O)(=O)c2ccc(Cl)c([N+](=O)[O-])c2)ccc1O)C1CCCCC1
2. CCCOC(=O)c1c(NC(=O)c2cnn3c2NC(c2ccccc2)CC3C(F)(F)F)sc2c1CCCC2 (centres undefined)
3. CC(=O)NC1C(Oc2ccc(C)cc2)OC2COC(c3ccco3)OC2C1O (centres undefined)
4. CSc1ccccc1-c1nnc(-c2ccc(Cl)cc2)o1
5. COc1ccc(/C=N/OCC(=O)N(Cc2ccccc2)c2ccccc2C(=O)O)cc1
6. O=C(/C=C/c1ccccc1)Nc1nnc(SCC(=O)c2ccc3ccccc3c2)s1

Outgoing:
1: -12.1; 2: -6.74; 3: 11.3; 4: 14.1; 5: 2.54; 6: -9.23

Provide each entry's inhibition from the list below.
1. FC(F)(F)c1cnc(Oc2ccccc2-c2nnc(-c3ccc(Cl)cc3)o2)c(Cl)c1
2. CCCN(CCC)C(=S)Nc1cc(C(=O)OC)ccc1C(=O)OC

Outgoing:
99.8
0.52

# credit: PubChem BioAssay AID828
